Measured Target: Corticotropin-releasing factor receptor 1 (Homo sapiens)
Method: Inhibition of corticotropin releasing factor receptor mediated increase in cAMP level using HEK293 cells expressing h-CRF1 receptor
Type: cell-based
Measured Metric: IC50 (nM)
Give bare numbers, in nM.

Assign IC50 to the following record: COCC(COC)n1nnc2c(Nc3c(C)cc(C)cc3Cl)nc(C)cc21.CS(=O)(=O)O
75

====

Method: oral pharmacokinetic parameter, Half-life period was reported in dogs
Type: ADME, organism-based, Canis lupus familiaris
Test Parameters: dog, in vivo
Measured Metric: half-life (min)
Numbers only, in min.

Assign half-life to the following record: COCC(COC)Nc1nc(C)nc2c(-c3ccc(Cl)cc3Cl)c(C)nn12
1980

====

Method: oral pharmacokinetic parameter, Half-life period was reported in rats
Format: ADME, organism-based
Test Parameters: rat, in vivo
Measured Metric: half-life (h)
One number for each entry, in h.

Assign half-life to the following record: COCC(COC)Nc1nc(C)nc2c(-c3ccc(Cl)cc3Cl)c(C)nn12
16.5

====

Method: Compound was tested for bioavailability when administered intraperitoneally
Type: ADME, organism-based
Test Parameters: eutheria, in vivo, ip
Measured Metric: bioavailability (%)
Answers are plain numbers, in %.

Assign bioavailability to the following record: CCN(c1nc(C)cc(C)n1)c1c(Br)cc(OC)cc1OC
26

====

Measured Target: Corticotropin-releasing factor receptor 1 (Homo sapiens, UniProt P34998)
Method: Compound was tested for the binding affinity to human corticotropin releasing factor 1 (hCRF1) receptors
Measured Metric: pKi
One number for each entry, as −log10 of the molar value.

Assign pKi to the following record: CCC(CC)Nc1cc(C)nc2c(-c3ccc(OC)cc3C)c(C)nn12
9.00

====

Measured Target: Corticotropin releasing factor receptor (Rattus norvegicus, UniProt P47866+P35353)
Method: Compound was tested for the inhibition of binding of the radioligand, [125 I-Tyr0]-CRF to rat cerebral cortex membrane
Type: tissue-based
Can you tell me IC50 for the items I'm about to list?
Answers are plain numbers, in nM.

Some entries whose results are on file:
Compound String | IC50 (nM)
CCCN(c1nc(-c2ccc(Cl)cc2Cl)c(C)s1)c1cccc2ncccc12 | 80
CCN(c1nc(C)cc(N2CCC=C(c3ccccc3C)C2)n1)c1ccc(C(C)C)cc1SC | 10
CCN(c1nc(C)cc(N2CC=C(c3cccc(F)c3)CC2)n1)c1ccc(C(C)C)cc1Br | 22.1

Assign IC50 to the following record: CCN(c1nc(C)cc(N2CC=C(c3cccc(F)c3)CC2)n1)c1ccc(C(C)C)cc1SC
12.7

====

Method: oral pharmacokinetic parameter, Maximum concentration was reported in dogs
Format: ADME, organism-based, Canis lupus familiaris
Parameters: route oral
Test Parameters: dog, in vivo
Measured Metric: Cmax
Quick note: number first, unit second.

Assign Cmax to the following record: COCC(COC)Nc1nc(C)nc2c(-c3ccc(Cl)cc3Cl)c(C)nn12
240 nM

====

Method: Compound was tested for the max. conc. when administered perorally(po) 30 mg/kg
Type: ADME, organism-based
Design: dose 30 mg/kg, route oral
Test Parameters: in vivo
Measured Metric: Cmax (nM)
Numbers only, in nM.

Assign Cmax to the following record: CCN(c1nc(C)cc(C)n1)c1c(Br)cc(OC)cc1OC
366

====

Method: Compound was tested for the binding affinity to mouse Corticotropin releasing factor receptor 2 beta
Measured Metric: pKi
Answers are plain numbers, as −log10 of the molar value.

Assign pKi to the following record: CO[C@@]12C(COC(N)=O)C3=C(C(=O)C(C)=C(NCCc4ccco4)C3=O)N1CC1NC12 (stereo partly specified)
7.70

====

Measured Target: UniProt P34998
Method: Antagonist potency in hCRF1 stimulated adenylate cyclase assay
Assay type: functional
Measured Metric: pEC50
Numbers only, as −log10 of the molar value.

Assign pEC50 to the following record: CCCN(CCC)c1cc(C)nc2c(-c3ccc(OC)cc3OC)c(C)nn12
6.85

====

Method: Compound was tested for the max. conc. when administered intraperitoneally (ip) 30 mg/kg
Assay type: ADME, organism-based
Set-up: dose 30 mg/kg, route intraperitoneal
Test Parameters: in vivo
Measured Metric: Cmax

Assign Cmax to the following record: CCN(c1nc(C)cc(C)n1)c1c(Br)cc(OC)cc1OC
1880 nM

====

Method: Half life period when administered 1 mg/kg intravenously in rat
Format: ADME, organism-based
Design: dose 1 mg/kg, route intravenous
Test Parameters: in vivo, iv
Measured Metric: half-life (h)
Numbers only, in h.

Assign half-life to the following record: COCCN(CCOC)c1nc(C)nc2c1nnn2-c1ccc(C(C)C)cc1Br
7.6

====

Measured Target: Corticotropin-releasing factor receptor 1 (Homo sapiens)
Method: Compound was tested for the binding affinity to human corticotropin releasing factor 1 (hCRF1) receptors.
Can you tell me Ki for the items I'm about to list?
Numbers only, in nM.

Compound String | Ki, nM
CCCN(CCC)c1cc(C)nc2c(-c3ccc(OC)cc3OC)c(C)nn12 | 2.8
CCCN(CCOC)c1cc(C)nc2c(-c3ccc(OC)c(OC)c3)c(C)nn12 | 13.7

Moving on to another compound below.
Assign Ki to the following record: CCC(CC)n1nnc2c(N3CCc4cc(Cl)cc(Cl)c43)nc(C)cc21
1.3

====

Measured Target: Corticotropin-releasing factor receptor 1 (Homo sapiens, UniProt P34998)
Sequence (P34998 whole entry): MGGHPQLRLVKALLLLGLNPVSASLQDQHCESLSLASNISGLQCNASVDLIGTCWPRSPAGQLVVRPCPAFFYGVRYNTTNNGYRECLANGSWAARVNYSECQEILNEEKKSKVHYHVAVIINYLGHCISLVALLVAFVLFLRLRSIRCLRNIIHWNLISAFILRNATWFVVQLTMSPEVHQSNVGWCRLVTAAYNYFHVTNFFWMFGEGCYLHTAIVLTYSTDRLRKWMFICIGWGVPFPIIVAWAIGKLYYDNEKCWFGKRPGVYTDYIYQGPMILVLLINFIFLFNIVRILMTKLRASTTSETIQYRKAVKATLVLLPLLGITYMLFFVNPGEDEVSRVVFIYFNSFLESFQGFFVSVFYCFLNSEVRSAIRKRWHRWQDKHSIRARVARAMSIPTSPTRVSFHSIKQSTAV
Method: Compound was tested for the binding affinity to human corticotropin releasing factor receptor
Measured Metric: pKi
Numbers only, as −log10 of the molar value.

Compound String | Measured Target | pKi
COCC(COC)n1nnc2c(Nc3c(C)cc(C)cc3Cl)nc(C)cc21.CS(=O)(=O)O | Corticotropin-releasing factor receptor 1 (Homo sapiens, UniProt P34998) | 8.48

Moving on to another molecule below.
Param request: pKi | system Corticotropin-releasing factor receptor 1 (Homo sapiens, UniProt P34998) | item COCC(COC)Nc1nc(C)nc2c(-c3ccc(Cl)cc3Cl)c(C)nn12
8.74

====

Measured Target: Corticotropin-releasing factor receptor 1 (Homo sapiens)
Method: Activity of peptidic agonists on corticotropin releasing factor receptor using agonist-stimulated adenylate cyclase assay
Format: functional
Measured Metric: EC50 (nM)
Numbers only, in nM.

Assign EC50 to the following record: H-NDDPPISIDLTFHLLRNMIEMARIENEREQAGLNRKYLDEV-NH2
6.3

====

Method: Inhibition of ovine CRF stimulated adenylate cyclase assay in CHO-p5 cells
Type: functional, cell-based
Test Parameters: Ovis aries
Measured Metric: IC50 (nM)
Numbers only, in nM.

Assign IC50 to the following record: CCCCN(CC)c1cc(C)nc2c(-c3ccc(Cl)cc3Cl)c(C)nn12
357

====

Method: Oral bioavailability is reported, after administering 1 mg/kg (intravenously and orally ) to dogs
Format: ADME, organism-based, Canis lupus familiaris
Test Parameters: dog, in vivo
Measured Metric: bioavailability (%)
Give bare numbers, in %.

Assign bioavailability to the following record: COCC(COC)n1nnc2c(Nc3c(C)cc(C)cc3Cl)nc(C)cc21.CS(=O)(=O)O
59

====

Measured Target: Corticotropin-releasing factor receptor 1 (Homo sapiens)
Method: Inhibition of corticotropin releasing factor receptor mediated increase in adenylate cyclase activity was evaluated
Measured Metric: IC50
Quick note: number first, unit second.

Assign IC50 to the following record: COCC(COC)Nc1nc(C)nc2c(-c3ccc(Cl)cc3Cl)c(C)nn12
82 nM

====

Measured Target: Corticotropin-releasing factor receptor 1 (Homo sapiens, UniProt P34998)
Method: Binding affinity of the receptor corticotropin releasing factor receptor with peptidic agonists
Measured Metric: Ki (nM)
Answers are plain numbers, in nM.

Assign Ki to the following record: H-NDDPPISIDLTFHLLRNMIEMARIENEREQAGLNRKYLDEV-NH2
1.07

====

Method: oral pharmacokinetic parameter, Half-life period was reported in rats
Assay type: ADME, organism-based
Test Parameters: rat, in vivo
Measured Metric: half-life (h)
Numbers only, in h.

Assign half-life to the following record: COCC(COC)Nc1nc(C)nc2c(-c3ccc(Cl)cc3Cl)c(C)nn12
16.5
